binders and their reported koff
Target: T1, recombinant human ErbB2/Fc chimera (human, UniProt P04626 23-652)
T1 construct: bought from R&D Systems; also called rhErbB2-Fc; rhErb2-Fc; Fc part of the bought chimera not given; not described
Experiment: SPR (Biacore 3000), periplasmic extract over immobilised rhErbB2-Fc

| Binder | Units Label | koff |
| --- | --- | --- |
| 2G2 (VHH, C-term myc-His6 tag) VHH: EVQLVESGGGLVQPGGSLRLSCVASGFSLDDYGMTWVRQAPGKGLEWVSSINWSGTHTDYTDPVKGRFTISRDNAKNTLFLQMNNLTPEDTAVYYCNRGWKIVPTDLGGHGTQVTVSS | s⁻¹ | 0.0013 |
| 2H1 (VHH, C-term myc-His6 tag) VHH: EVQLVESGGGLVQPGGSLRLSCVASGFSLDDYGMTWVRQAPGKGLEWVSSINWSGTHTDYADSVRGRFVISRDNAKNTLFLQMNSLSPEDTAVYYCNQGWKIIPTDRRGHGTQVTVSS | s⁻¹ | 0.00109 |
| 2D4 (VHH, C-term myc-His6 tag) VHH: EVQLVESGGSLVQPGGSLRLSCAASGFTFDDYAMTWVRQAPGKGLEWVSSINWSGTHTDYADSVKGRFTISRNNANNTLYLQMNSLKSDDTAVYYCAKNWGDAGTTWFEKSGSAGPGTQVTVSS | s⁻¹ | 0.00165 |
| 2D1 (VHH, C-term myc-His6 tag) VHH: EVQLVESGGGLVQPGGSLRLSCVASGFSLDDYGMTWVRQAPGKGLEWVSSINWSGTHTDYADSVKGRFTISRDNAKNTLFLQMNSLSPEDTAVYYCNRGWKILPTNRGSHGTQVTVSS | s⁻¹ | 0.00127 |
| 2F1 (VHH, C-term myc-His6 tag) VHH: EVQLVESGGGLVQPGGSLRLSCVASGFSLDDYGMTWVRQAPGKELEWISSINWSGTHTDYADSVKGRFTISRDNAKNTLFLQMNSLTPEDTAVYYCNQGWKIVPMDRRGHGTQVTVSS | s⁻¹ | 0.00177 |
| 2H4 (VHH, C-term myc-His6 tag) VHH: EVQLVESGGSLVQPGGSLRLSCAASGFTFDDYAMTWVRQAPGKGLEWVSSINWSGTHTDYTDSVKGRFTISRNNANNTLYLQMNSLKSEDTAVYYCAKNWGDAGTTWFEKSGSAGQGTQVTVSS | s⁻¹ | 0.00161 |
